- ASSAY_NAME: growth suppression of PTEN-deleted HCT116, pilot screen, cell-based, HCT116 clonal line, CellTiter-Glo (AID 824);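 note: 0% = 20 µM Hyamine control and 100% = vehicle cell control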
- MEASUREMENT_CONTEXT: 60 h, at 10 µM, hits give low values
Records with an inconclusive call do not appear.
PROPERTY_NAME: viability (%)
Write down the numeric answer in % and omit the unit.

IN: Query (compound): OC1CCN(c2c3c(nc4cc(-c5cccc(F)c5)nn24)CCCC3)CC1 ; field requested: viability
OUT: 65

IN: Query (compound): CC1CCCC(NC(=O)CN(C)S(=O)(=O)c2cccc3cccnc23)C1C (stereo not drawn) ; field requested: viability
OUT: 88.4

IN: Query (compound): COCCCN(C(=O)Nc1ccccc1)C(C)c1ccncc1 (stereo not drawn) ; field requested: viability
OUT: 94.3

IN: Query (compound): CC1=C(C(=O)OCC2CCCO2)C(c2ccncc2)C2=C(CCCC2=O)N1 (stereo not drawn) ; field requested: viability
OUT: 98.1

IN: Query (compound): COc1ccc(-c2nnc(SCC(=O)NC(C)C)n2CC2CCCO2)cc1OC (stereo not drawn) ; field requested: viability
OUT: 98.3

IN: Query (compound): CCOCCCNC(=O)C(NC(=O)c1cnccn1)c1ccc(OC)cc1 (stereo not drawn) ; field requested: viability
OUT: 95.7

IN: Query (compound): CCOC(=O)N1CCN(C(=O)Cn2c(=O)sc3ccccc32)CC1 ; field requested: viability
OUT: 97.6

IN: Query (compound): COc1ccccc1-c1coc2cc(O)cc(O)c2c1=O ; field requested: viability
OUT: 92.6

IN: Query (compound): CCCOc1ccc(NC(=O)c2c(-c3ccccc3)noc2C)cc1 ; field requested: viability
OUT: 90.5

IN: Query (compound): O=C(NCCc1ccc(Cl)cc1)c1cnc2n(c1=O)CCS2 ; field requested: viability
OUT: 92.1

IN: Query (compound): O=C(COC(=O)c1ccc(Br)o1)Nc1nc2ccccc2s1 ; field requested: viability
OUT: 87.8

IN: Query (compound): O=C(C1CC1)N1CCc2cc(Br)cc(S(=O)(=O)NCc3ccc4c(c3)OCO4)c21 ; field requested: viability
OUT: 86.1

IN: Query (compound): Cc1ccc2cc(CCNC(=O)CC(C)C)c(=O)[nH]c2c1 ; field requested: viability
OUT: 103

IN: Query (compound): O=c1cc(N2CCOCC2)[nH]c(=O)n1Cc1ccc(F)cc1 ; field requested: viability
OUT: 99.1

IN: Query (compound): Cc1ccc(NC(=O)C2CCN(S(=O)(=O)c3cccc4cccnc34)CC2)nc1 ; field requested: viability
OUT: 87.2

IN: Query (compound): C=CC(C)Sc1nc2c(c(=O)n(C)c(=O)n2C)n1Cc1ccccc1Cl (stereo not drawn) ; field requested: viability
OUT: 99.3

IN: Query (compound): CCOC(=O)c1c(C)c(-c2ccccc2)n(CC(=O)N2CCN(C)CC2)c1C ; field requested: viability
OUT: 102

IN: Query (compound): COc1ccc(C(=O)Nc2ccc(S(=O)(=O)N3CCCCC3C)cc2)c(OC)c1OC (stereo not drawn) ; field requested: viability
OUT: 96.1

====

- ASSAY_NAME: RAM signaling pathway blockade in yeast – S. cerevisiae, Pdr1DBD-CYC8 efflux-inhibited sensitized strain, primary screen (AID 1298);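 note: 0% = DMSO untreated cells without growth and 100% = 10 µM 1-NA-PP1 full growth; higher means more yeast growth rescued from 5-FOA killing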
- MEASUREMENT_CONTEXT: S. cerevisiae cbk1-as DSE1-URA3 strain, 5-FOA growth OD615, 2 d; at 50 µM; hits give high values
PROPERTY_NAME: RAM network inhibition (%)
Write down the numeric answer in % and omit the unit.

IN: Query (molecule): CCc1cc(C(=O)Cc2cnn(-c3ccccc3)c2)c(O)cc1O ; field requested: RAM network inhibition
OUT: 3.54

IN: Query (molecule): Nn1c(SCc2ccccc2)nnc1-c1ccco1 ; field requested: RAM network inhibition
OUT: -1.12

IN: Query (molecule): CCOC(=O)CNC(=O)C(NC(=O)C1CCC(C)CC1)C(C)CC (stereo unspecified) ; field requested: RAM network inhibition
OUT: 0.93

IN: Query (molecule): COc1cc(OC)cc(C(=O)OCn2nnc3ccccc3c2=O)c1 ; field requested: RAM network inhibition
OUT: 7.22

IN: Query (molecule): CCOc1ccc(NS(=O)(=O)c2ccc3[nH]c(=O)oc3c2)cc1 ; field requested: RAM network inhibition
OUT: 4.48

IN: Query (molecule): COCC(=O)NCc1nc2ccccc2n1Cc1ccccc1F ; field requested: RAM network inhibition
OUT: 0.88
